ASSAY SYSTEM: EGF-R Kinase (recombinant enzyme) (Homo sapiens, UniProt P00533)
Construct: containing the EGFR cDNA encoding amino acids 645 - 1186 preceded by Met-Ala-(His)6; made in house; host or cells: Sf9 insect cells infected with recombinant baculovirus vHcEGFR52
Sequence (P00533 669-1210): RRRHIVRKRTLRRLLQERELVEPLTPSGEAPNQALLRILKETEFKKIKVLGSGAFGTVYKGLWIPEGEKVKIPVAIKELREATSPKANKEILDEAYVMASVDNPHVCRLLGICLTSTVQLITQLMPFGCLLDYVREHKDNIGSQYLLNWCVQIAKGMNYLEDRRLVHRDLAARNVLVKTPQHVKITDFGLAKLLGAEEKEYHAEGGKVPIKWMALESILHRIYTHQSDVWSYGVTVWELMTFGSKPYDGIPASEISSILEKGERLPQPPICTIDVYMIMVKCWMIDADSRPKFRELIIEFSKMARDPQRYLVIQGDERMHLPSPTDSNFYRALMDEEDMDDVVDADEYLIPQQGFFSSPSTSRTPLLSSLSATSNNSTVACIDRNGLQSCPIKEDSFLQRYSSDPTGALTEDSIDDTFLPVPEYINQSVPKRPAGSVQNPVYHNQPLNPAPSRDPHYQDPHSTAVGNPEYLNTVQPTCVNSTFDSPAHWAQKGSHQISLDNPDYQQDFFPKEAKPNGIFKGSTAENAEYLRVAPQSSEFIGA
ASSAY DETAILS: Inhibition of Epidermal Growth Factor Receptor Kinase (EGF-R) using recombinant enzyme, RR-SRC peptide phosphorylation with 33P-ATP
Format: biochemical
PROPERTY NAME: IC50 (nM)
The answer is to be given in nM; state only the numeric part.

What value of IC50 on EGF-R Kinase (recombinant enzyme) (Homo sapiens, UniProt P00533) does C=CC(=O)Nc1cnc2ncc(C#N)c(Nc3cccc(Br)c3)c2c1 have?
7

Also need CN(C)CC=CC(=O)Nc1cc2c(Nc3cccc(Br)c3)c(C#N)cnc2cn1 , thanks.
5

----------
ASSAY SYSTEM: Mitogen Activated Protein Kinase (Mek-Erk) (Homo sapiens, UniProt P28482+Q02750)
Sequence (P28482 2-360): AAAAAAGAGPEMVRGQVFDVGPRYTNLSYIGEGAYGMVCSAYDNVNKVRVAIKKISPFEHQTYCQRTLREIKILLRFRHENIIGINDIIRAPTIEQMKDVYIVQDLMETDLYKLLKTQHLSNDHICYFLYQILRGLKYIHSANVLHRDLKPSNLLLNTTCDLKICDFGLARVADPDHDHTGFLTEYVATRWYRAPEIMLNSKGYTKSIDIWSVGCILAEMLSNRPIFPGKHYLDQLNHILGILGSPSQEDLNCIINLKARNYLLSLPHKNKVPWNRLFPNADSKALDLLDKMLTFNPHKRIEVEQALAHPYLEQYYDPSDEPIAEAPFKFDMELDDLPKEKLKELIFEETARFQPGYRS
Sequence (Q02750 whole entry): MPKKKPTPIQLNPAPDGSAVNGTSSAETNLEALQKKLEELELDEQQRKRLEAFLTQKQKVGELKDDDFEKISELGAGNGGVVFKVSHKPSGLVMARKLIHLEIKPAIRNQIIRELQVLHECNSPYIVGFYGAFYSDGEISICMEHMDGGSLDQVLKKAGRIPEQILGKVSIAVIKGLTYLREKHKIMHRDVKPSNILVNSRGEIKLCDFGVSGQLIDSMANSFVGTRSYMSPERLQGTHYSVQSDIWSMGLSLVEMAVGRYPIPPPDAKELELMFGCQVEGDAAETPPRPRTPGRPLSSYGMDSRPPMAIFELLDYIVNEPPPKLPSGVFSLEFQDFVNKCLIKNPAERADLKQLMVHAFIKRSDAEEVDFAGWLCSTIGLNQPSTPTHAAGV
ASSAY DETAILS: Mitogen Activated Protein Kinase (MAPK) coupled MEK 1 / ERK2 assay
Type: biochemical
COND: separate entries = evaluated more than one time, read-out: IC50
Record form. Attribute: IC50. Fill in for each entry.
The answer is to be given in µM; state only the numeric part.

GET /values?readout=IC50&item= CN(C)CC=CC(=O)Nc1cnc2ncc(C#N)c(Nc3cccc(Br)c3)c2c1 [Example 30]
50

Also need N#Cc1cnc2ncc(NC(=O)CCl)cc2c1Nc1cccc(Br)c1 [Example 28] , thanks.
6

----------
Record form. Attribute: IC50. Fill in for each entry.
ASSAY SYSTEM: EGF-R Kinase (recombinant enzyme) (Homo sapiens)
Construct: containing the EGFR cDNA encoding amino acids 645 - 1186 preceded by Met-Ala-(His)6; made in house; host or cells: Sf9 insect cells infected with recombinant baculovirus vHcEGFR52
ASSAY DETAILS: Inhibition of Epidermal Growth Factor Receptor Kinase (EGF-R) using recombinant enzyme, RR-SRC peptide phosphorylation with 33P-ATP
Format: biochemical
COND: recombinant His-tagged cytoplasmic domain of EGFR; RR-SRC peptide; 90 min at room temperature; read-out: IC50
The answer is to be given in nM; state only the numeric part.

GET /values?readout=IC50&item= N#Cc1cnc2ncc([N+](=O)[O-])cc2c1Nc1cccc(Br)c1
3

Also need N#Cc1cnc2cnc(N)cc2c1Nc1cccc(Br)c1 , thanks.
0.7

Also need N#Cc1cnc2ccc(OCCCN3CCOCC3)nc2c1Nc1cccc(Br)c1 , thanks.
1000

Also need N#Cc1cnc2ncc(N)cc2c1Nc1cccc(Br)c1 , thanks.
50

Also need Cc1ccc(Nc2c(C#N)cnc3ccc(OCCCN4CCOCC4)nc23)cc1O , thanks.
1000

Also need N#Cc1cnc2cnc(F)cc2c1Nc1cccc(Br)c1 , thanks.
8

Also need CC#CC(=O)Nc1cc2c(Nc3cccc(Br)c3)c(C#N)cnc2cn1 , thanks.
20

Also need N#Cc1cnc2cnc(NCCN3CCOCC3)cc2c1Nc1cccc(Br)c1 , thanks.
1000

----------
Record form. Attribute: pIC50. Fill in for each entry.
ASSAY SYSTEM: Epithelial Cell Kinase (ECK) (Homo sapiens)
Sequence (P29317 24-976, species assumed): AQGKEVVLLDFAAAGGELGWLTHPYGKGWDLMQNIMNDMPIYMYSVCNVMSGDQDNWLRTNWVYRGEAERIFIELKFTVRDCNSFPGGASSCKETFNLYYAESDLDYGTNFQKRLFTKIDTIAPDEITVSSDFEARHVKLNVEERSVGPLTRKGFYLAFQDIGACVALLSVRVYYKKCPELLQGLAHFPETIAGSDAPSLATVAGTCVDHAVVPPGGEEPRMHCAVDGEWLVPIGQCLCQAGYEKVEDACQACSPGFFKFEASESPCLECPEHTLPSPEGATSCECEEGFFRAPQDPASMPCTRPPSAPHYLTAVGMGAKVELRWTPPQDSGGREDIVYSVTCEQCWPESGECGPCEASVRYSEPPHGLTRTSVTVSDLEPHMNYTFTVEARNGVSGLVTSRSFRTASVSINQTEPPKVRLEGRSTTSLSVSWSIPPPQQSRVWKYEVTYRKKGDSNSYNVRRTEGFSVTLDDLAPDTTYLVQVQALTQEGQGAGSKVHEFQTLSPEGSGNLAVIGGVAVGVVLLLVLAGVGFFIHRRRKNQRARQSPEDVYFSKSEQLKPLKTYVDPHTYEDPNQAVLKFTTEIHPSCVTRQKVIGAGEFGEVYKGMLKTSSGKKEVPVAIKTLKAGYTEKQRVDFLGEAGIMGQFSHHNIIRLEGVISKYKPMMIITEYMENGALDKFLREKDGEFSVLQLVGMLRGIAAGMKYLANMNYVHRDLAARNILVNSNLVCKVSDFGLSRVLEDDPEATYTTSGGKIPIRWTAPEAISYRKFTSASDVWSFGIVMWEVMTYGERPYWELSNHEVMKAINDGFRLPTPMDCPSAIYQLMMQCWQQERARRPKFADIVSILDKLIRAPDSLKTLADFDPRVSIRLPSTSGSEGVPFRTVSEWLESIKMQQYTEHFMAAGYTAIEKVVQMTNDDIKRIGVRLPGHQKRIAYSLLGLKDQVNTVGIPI
ASSAY DETAILS: Inhibition of Epithelial Cell Kinase (ECK), nonradioactive peptide phosphorylation plate assay
Type: biochemical
COND: pH 7.2; multiple entries = tested multiple times
pIC50: −log10 of the molar value.

GET /values?readout=pIC50&item= N#Cc1cnc2ccc(OCCCN3CCOCC3)nc2c1Nc1cccc(Br)c1 [Example 44]
< 5.68

Also need Cc1ccc(Nc2c(C#N)cnc3ccc(OCCCN4CCOCC4)nc23)cc1O [Example 43] , thanks.
< 5.64

Also need CC#CC(=O)Nc1cnc2ncc(C#N)c(Nc3cccc(Br)c3)c2c1 [Example 24] , thanks.
7.52

Also need N#Cc1cnc2cnc(F)cc2c1Nc1ccc(F)c(Cl)c1 [Example 69] , thanks.
< 5.51
